FYI, the data here is from patent US20060264369.

- target_or_test_system: von Willebrand factor full length (Homo sapiens, UniProt P04275 SEQ:764-2813)
- assay_comment: filter; 44% bound at 100 nM
- study_conditions: tags: Calbiochem 681300
endpoint_name: Kd (nM)
Please reply with the bare figure in nM and do not write the unit itself.

GET /values?readout=Kd&item= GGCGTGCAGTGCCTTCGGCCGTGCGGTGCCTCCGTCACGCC (ssDNA, 2'-OMe at 16; 3'-idT) [ARC1209]
2
